Source listed as BindingDB's records for doi:10.1016/j.bmcl.2009.10.094.

- Protocol description: Antagonist activity at human CRTH2 receptor expressed in CEM cell assessed as inhibition of PGD2-induced cell migration after 3 hrs by transwell migration assay
Parameter: EC50 (nM)
# unit: nM | format: bare number

Identify measured EC50 corresponding to CC(=O)N(c1ccccc1)[C@@H]1C[C@H](C)N(C(=O)c2ccccc2)c2ccccc21 (racemic)
11
